Values compiled from PubChem BioAssay AID847.

Let's look at some compounds and their measured viability.
- Experiment description: SK-BR-3 proliferation inhibitors, primary screen, cell-based, human, 24 h (AID 847);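 note: 100% = median untreated cell wells and 0% = median positive control drug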
- Assay conditions: SK-BR-3 viability, CellTiter-Glo ATP luminescence, at 10 µM, hits give low values
About 190 (0.46%) of roughly 41,000 compounds were called active. This is one part of a sample in which actives are shown more often than they occur.
Reply numerically in %, unit not repeated.

Below, 6 compounds whose answers are already recorded.
CCCCn1c(SCC(=O)N2CCC(C(=O)OCC)CC2)nc2cc(S(N)(=O)=O)ccc21 : 89.6
O=C(NCC1CCCO1)C(C(=O)c1ccccc1)n1cc(Cl)ccc1=O (stereo not drawn) : 87.7
O=C(Cn1c(-c2ccc(Cl)cc2)noc1=O)N1CCN(c2ccccc2F)CC1 : 88.1
CCOC(=O)c1sc(NC(=O)c2cc(S(=O)(=O)N3CCOCC3)ccc2C)nc1C : 88.3
O=C(Oc1ccccc1)c1ccc2nccnc2c1 : 80.4
O=C(Nc1cccc(C(=O)N2CCCC2)c1)c1ccccc1 : 91.4

Quick check: viability of CSCCC(Nc1nc2ccccc2s1)C(=O)O (stereo not drawn) ?
81.1

How about `CN1CCN(S(=O)(=O)c2ccc(NC(=O)c3ccco3)cc2)CC1` ?
85.4
